Target: cloned human MC4R (Homo sapiens, UniProt P32245)
Construct: made in house; host or cells: Hi5 insect cells (baculovirus infection); membrane preparation
Sequence (P32245 whole entry): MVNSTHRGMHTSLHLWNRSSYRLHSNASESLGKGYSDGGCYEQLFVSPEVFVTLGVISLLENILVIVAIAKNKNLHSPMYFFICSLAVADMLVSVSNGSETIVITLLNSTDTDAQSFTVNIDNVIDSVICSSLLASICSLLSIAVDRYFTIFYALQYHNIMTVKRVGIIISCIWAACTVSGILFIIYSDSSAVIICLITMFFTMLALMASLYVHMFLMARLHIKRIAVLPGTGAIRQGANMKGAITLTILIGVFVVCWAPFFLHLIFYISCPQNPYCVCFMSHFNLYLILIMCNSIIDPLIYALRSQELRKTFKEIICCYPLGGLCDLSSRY
Test: Membrane binding assay: competitive inhibition of [125I]NDP-α-MSH binding
Conditions: read-out: MC4R IC50
pIC50: −log10 of the molar value.
A collection of compounds and their measured pIC50

Illustrative cases are given below, each with its answer.
> print(dat)
                                   compound                          target.or.system  recorded.result
1  CC(C)(C)c1cc(CN2CCN(C(=O)[C@@H](N)Cc3ccc(OCc4ccccc4)cc3)CC2)cc(C(C)(C)C)c1O  cloned human MC4R (Homo sapiens, UniProt P32245)           > 5.82
2  CCOc1ccc(CN2CCCN(C(=O)[C@@H](N)Cc3ccc(OCc4ccccc4)cc3)CC2)c(OCC)c1C  cloned human MC4R (Homo sapiens, UniProt P32245)           > 5.82
3  N[C@@H](Cc1ccc(OCc2c(F)cccc2F)cc1)C(=O)N1CCN(Cc2cccc(Cl)c2Cl)CC1  cloned human MC4R (Homo sapiens, UniProt P32245)     5.52 to 5.82
4  CN(C)c1ccc(CN2CCCN(C(=O)[C@@H](N)Cc3ccc(OCc4ccccc4)cc3)CC2)cc1  cloned human MC4R (Homo sapiens, UniProt P32245)           < 5.52
5  N[C@@H](Cc1ccc(-c2cccc(Cl)c2)cc1)C(=O)N1CCN(Cc2cccc(Cl)c2Cl)CC1  cloned human MC4R (Homo sapiens, UniProt P32245)           > 5.82
6  N[C@@H](Cc1ccc(OCc2cc(C(F)(F)F)cc(C(F)(F)F)c2)cc1)C(=O)N1CCN(Cc2cccc(Cl)c2Cl)CC1  cloned human MC4R (Homo sapiens, UniProt P32245)     5.52 to 5.82
7  N[C@@H](Cc1ccc(OCc2ccccc2)cc1)C(=O)N1CCCN(Cc2ccc(Cl)c(Cl)c2)CC1  cloned human MC4R (Homo sapiens, UniProt P32245)     5.52 to 5.82
8  N[C@@H](Cc1ccc(OCc2ccccc2)cc1)C(=O)N1CCN(C2CCC(c3ccccc3)CC2)CC1 (stereo partly drawn)  cloned human MC4R (Homo sapiens, UniProt P32245)           < 5.52

Q: Can you look up the measured pIC50 of `N[C@@H](Cc1ccc(OCc2ccccc2)cc1)C(=O)N1CCN(Cc2ccco2)CC1` for me?
Result: < 5.52

Q: Can you look up the measured pIC50 of `N[C@@H](Cc1ccc(OCc2cccc(F)c2)cc1)C(=O)N1CCN(Cc2cccc(Cl)c2Cl)CC1` for me?
Result: > 5.82

Q: Can you look up the measured pIC50 of `COc1ccc(COc2ccc(C[C@H](N)C(=O)N3CCN(Cc4cccc(Cl)c4Cl)CC3)cc2)c(OC)c1` for me?
Result: < 5.52

Q: Can you look up the measured pIC50 of `N[C@@H](Cc1ccc(-c2ccc(OC(F)(F)F)cc2)cc1)C(=O)N1CCN(Cc2cccc(Cl)c2Cl)CC1` for me?
Result: > 5.82

Q: Can you look up the measured pIC50 of `N[C@@H](Cc1ccc(OCc2ccccc2)cc1)C(=O)N1CCN(Cc2cccc([N+](=O)[O-])c2)CC1` for me?
Result: < 5.52

Q: Can you look up the measured pIC50 of `N[C@@H](Cc1ccc(OCc2ccccc2)cc1)C(=O)N1CCCN(Cc2ccccc2Cl)CC1` for me?
Result: < 5.52

Q: Can you look up the measured pIC50 of `N[C@@H](Cc1ccc(OCc2ccccc2)cc1)C(=O)N1CCN(Cc2ccc(F)cc2F)CC1` for me?
Result: < 5.52

----------
Molecular target: cloned human MC4R (Homo sapiens)
Construct: made in house; host or cells: Hi5 insect cells (baculovirus infection); membrane preparation
Experiment: Membrane binding assay: competitive inhibition of [125I]NDP-α-MSH binding
Conditions: at 10 μM; [125I]NDP-α-MSH displacement; read-out: Displacement Rate (%) (at 10 μM)
result-type: inhibition at 10 µM

Illustrative cases are given below, each with its answer.
> print(dat)
                                        smi          result.type  recorded.result
1  O=C([C@H](Cc1ccc(OCc2ccccc2)cc1)NCCN1CCOCC1)N1CCN(Cc2cccc(Cl)c2Cl)CC1  inhibition at 10 µM        71 to 90%
2  CCCN[C@@H](Cc1ccc(OCc2ccccc2)cc1)C(=O)N1CCN(Cc2cccc(Cl)c2Cl)CC1  inhibition at 10 µM       91 to 100%
3  N[C@@H](Cc1ccc(OCc2ccccc2)cc1)C(=O)N1CCCN(Cc2cc3c(cc2[N+](=O)[O-])OCO3)CC1  inhibition at 10 µM        35 to 70%

Now for the compound whose inhibition at 10 µM we want.
Q: Can you look up the measured inhibition at 10 µM of `N[C@@H](Cc1ccc(-c2ccccc2F)cc1)C(=O)N1CCN(Cc2cccc(Cl)c2Cl)CC1` for me?
Result: 91 to 100%

----------
Molecular target: cloned human MC4R (Homo sapiens, UniProt P32245)
Construct: made in house; host or cells: Hi5 insect cells (baculovirus infection); membrane preparation
Test: Membrane binding assay: competitive inhibition of [125I]NDP-α-MSH binding
Details: read-out: MC4R IC50
result-type: IC50

Illustrative cases are given below, each with its answer.
> print(dat)
                                        smi  recorded.result
1  N[C@@H](Cc1ccc(OCc2c(Cl)cccc2Cl)cc1)C(=O)N1CCN(Cc2cccc(Cl)c2Cl)CC1      1.5 to 3 µM
2  N[C@@H](Cc1ccc(OCc2ccccc2)cc1)C(=O)N1CCN(Cc2ccc(C(F)(F)F)cc2)CC1           > 3 µM
3  N[C@@H](Cc1ccc(OCc2ccccc2)cc1)C(=O)N1CCCN(CCCc2ccccc2)CC1           > 3 µM

Now for the compound whose IC50 we want.
Q: Can you look up the measured IC50 of `CN(C)CCN[C@@H](Cc1ccc(OCc2ccccc2)cc1)C(=O)N1CCN(Cc2cccc(Cl)c2Cl)CC1` for me?
Result: < 1.5 µM

----------
Target: cloned human MC4R (Homo sapiens, UniProt P32245)
Construct: made in house; host or cells: Hi5 insect cells (baculovirus infection); membrane preparation
Test: Membrane binding assay: competitive inhibition of [125I]NDP-α-MSH binding
Conditions: read-out: MC4R IC50
pIC50: −log10 of the molar value.
A collection of compounds and their measured pIC50

Q: Can you look up the measured pIC50 of `N[C@@H](Cc1ccc(OCc2ccccc2)cc1)C(=O)N1CCCN(Cc2ccc(-c3cccc([N+](=O)[O-])c3)o2)CC1` for me?
Result: 5.52 to 5.82

Q: Can you look up the measured pIC50 of `Cc1ccccc1Oc1ccc(C[C@H](N)C(=O)N2CCN(Cc3cccc(Cl)c3Cl)CC2)cc1` for me?
Result: 5.52 to 5.82

Q: Can you look up the measured pIC50 of `CCOc1ccc(CN2CCN(C(=O)[C@@H](N)Cc3ccc(OCc4ccccc4)cc3)CC2)c(OCC)c1C` for me?
Result: 5.52 to 5.82

----------
Target: cloned human MC4R (Homo sapiens, UniProt P32245)
Construct: made in house; host or cells: Hi5 insect cells (baculovirus infection); membrane preparation
Experiment: Membrane binding assay: competitive inhibition of [125I]NDP-α-MSH binding
Conditions: read-out: MC4R IC50
result-type: IC50

Illustrative cases are given below, each with its answer.
> print(dat)
                                        smi  recorded.result
1  CCCCOc1ccc(COc2ccc(C[C@H](N)C(=O)N3CCN(Cc4cccc(Cl)c4Cl)CC3)cc2)cc1  1500 to 3000 nM
2  O=C([C@H](Cc1ccc(OCc2ccccc2)cc1)NCc1ccccc1)N1CCN(Cc2cccc(Cl)c2Cl)CC1        > 3000 nM
3  CCCCCCCCOc1ccc(CN2CCCN(C(=O)[C@@H](N)Cc3ccc(OCc4ccccc4)cc3)CC2)cc1        < 1500 nM
4  N[C@@H](Cc1ccc(-c2cnc3ccccc3c2)cc1)C(=O)N1CCN(Cc2cccc(Cl)c2Cl)CC1  1500 to 3000 nM
5  CCCCCOc1ccc(CN2CCCN(C(=O)[C@@H](N)Cc3ccc(OCc4ccccc4)cc3)CC2)cc1        < 1500 nM

Q: cloned human MC4R (Homo sapiens, UniProt P32245) / IC50 / `N[C@@H](Cc1ccc(OCc2c(F)cccc2Cl)cc1)C(=O)N1CCN(Cc2cccc(Cl)c2Cl)CC1` : value?
Result: 1500 to 3000 nM

Q: cloned human MC4R (Homo sapiens, UniProt P32245) / IC50 / `N[C@@H](Cc1ccc(OCc2ccccc2)cc1)C(=O)N1CCCN(Cc2cc([N+](=O)[O-])ccc2Cl)CC1` : value?
Result: > 3000 nM

Q: cloned human MC4R (Homo sapiens, UniProt P32245) / IC50 / `COc1ccc(-c2ccc(C[C@H](N)C(=O)N3CCN(Cc4cccc(Cl)c4Cl)CC3)cc2)c(OC)c1` : value?
Result: 1500 to 3000 nM
